- test system: Drosophila OR47a (Drosophila melanogaster)
- Construct: expressed in transfected cells
- Sequence (P81921 whole entry, one chain of several): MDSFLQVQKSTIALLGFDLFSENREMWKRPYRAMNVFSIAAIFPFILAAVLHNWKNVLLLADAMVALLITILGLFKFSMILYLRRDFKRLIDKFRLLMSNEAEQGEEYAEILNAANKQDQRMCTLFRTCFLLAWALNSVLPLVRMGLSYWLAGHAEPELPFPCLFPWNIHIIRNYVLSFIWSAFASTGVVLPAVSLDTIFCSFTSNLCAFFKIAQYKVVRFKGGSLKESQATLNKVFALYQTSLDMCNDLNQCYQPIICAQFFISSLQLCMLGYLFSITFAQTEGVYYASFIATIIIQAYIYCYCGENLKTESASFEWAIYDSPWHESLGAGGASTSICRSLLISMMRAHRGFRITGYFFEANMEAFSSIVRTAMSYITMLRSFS
- procedure details: Calcium ion fluorescence (GCaMP6) assay, OR47a stable HEK293 cell line
- Type: cell-based
- measurement setup: OR47a cell line; odorant cc. 100 µM; mean of biological replicates
Listing of entries alongside the reported Average response.
Give the figure by itself; no unit, no explanation.

Examples from the recorded data:
(Q) What value of Average response has been reported for the following molecule? Cc1ccc(C)c(C)c1 [1,2,4-trimethylbenzene]
(A) 0.00

(Q) And CC1=CCC2CC1C2(C)C (stereo not drawn) [alpha-pinene] ?
(A) 0.0468

(Q) And CCOC(=O)CC [ethyl propionate] ?
(A) 0.0175

(Q) And C=CC(C)(O)CCC=C(C)C (stereo not shown) [linalool] ?
(A) 0.00

---
(Q) What value of Average response has been reported for the following molecule? CC(=O)OCC(C)C [isobutyl acetate]
(A) 0.65

(Q) And CC1=CCC2C(C1)C2(C)C (stereo not shown) [3-carene] ?
(A) 0.03

(Q) And COC(=O)c1ccccc1O [methyl salicylate] ?
(A) 0.14

###

- test system: Drosophila OR10a (Drosophila melanogaster, UniProt Q9VYZ1)
- Construct: expressed in transfected cells
- Sequence (Q9VYZ1 1-406): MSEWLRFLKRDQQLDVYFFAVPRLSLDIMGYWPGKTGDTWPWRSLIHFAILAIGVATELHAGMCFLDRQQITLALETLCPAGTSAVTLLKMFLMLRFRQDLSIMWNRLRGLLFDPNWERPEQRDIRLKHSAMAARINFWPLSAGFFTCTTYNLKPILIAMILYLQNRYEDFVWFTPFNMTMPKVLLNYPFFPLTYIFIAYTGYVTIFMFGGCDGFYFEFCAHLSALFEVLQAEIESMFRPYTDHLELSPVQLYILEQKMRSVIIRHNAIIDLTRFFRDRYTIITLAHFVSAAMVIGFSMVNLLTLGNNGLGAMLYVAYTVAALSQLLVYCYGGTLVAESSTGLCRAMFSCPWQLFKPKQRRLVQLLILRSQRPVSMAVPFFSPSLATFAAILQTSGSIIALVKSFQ
- Sequence (Q9VNB5 1-486 partner): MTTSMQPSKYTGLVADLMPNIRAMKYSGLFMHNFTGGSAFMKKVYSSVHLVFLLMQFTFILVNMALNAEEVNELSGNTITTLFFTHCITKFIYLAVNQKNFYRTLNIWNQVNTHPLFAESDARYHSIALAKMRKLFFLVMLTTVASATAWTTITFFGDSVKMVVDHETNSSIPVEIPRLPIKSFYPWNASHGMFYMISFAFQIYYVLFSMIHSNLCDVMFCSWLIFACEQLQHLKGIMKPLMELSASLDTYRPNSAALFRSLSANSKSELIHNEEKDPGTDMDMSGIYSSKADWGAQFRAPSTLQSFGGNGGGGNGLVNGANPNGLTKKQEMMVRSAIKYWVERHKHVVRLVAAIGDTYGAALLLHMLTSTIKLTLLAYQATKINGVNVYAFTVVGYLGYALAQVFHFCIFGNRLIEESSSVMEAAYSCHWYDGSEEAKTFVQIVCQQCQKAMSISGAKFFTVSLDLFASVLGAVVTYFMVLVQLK
- procedure details: Calcium ion fluorescence (GCaMP6) assay, OR10a stable HEK293 cell line
- Assay type: cell-based
- measurement setup: ligand concentration 10 (unit not given); threshold 0.05, below shown as 0
Listing of entries alongside the reported DF norm AVERAGE OR10a.
Give the figure by itself; no unit, no explanation.

Examples from the recorded data:
(Q) Hi! What's the reported DF norm AVERAGE OR10a for Cc1cccc(C)c1 on Drosophila OR10a (Drosophila melanogaster, UniProt Q9VYZ1)?
(A) 0

(Q) And CCCCOC(=O)CC [butyl propanoate] ?
(A) 0

(Q) And Cc1ccccc1C ?
(A) 0

(Q) And C=CCc1ccc(O)c(OC)c1 ?
(A) 0.05743

(Q) And C=C1CCC2CC1C2(C)C (centres unmarked) ?
(A) 0

---
(Q) Hi! What's the reported DF norm AVERAGE OR10a for CC1=CCC2CC1C2(C)C (centres unmarked) on Drosophila OR10a (Drosophila melanogaster, UniProt Q9VYZ1)?
(A) 0

(Q) And Cc1ccc(C(C)C)cc1 ?
(A) 0

(Q) And CC/C=C/CCO ?
(A) 0

(Q) And CCCCCCCCC=O ?
(A) 0

###

Listing of entries alongside the reported DF norm AVERAGE OR49b.
- test system: Drosophila OR49b (Drosophila melanogaster, UniProt Q9V6H2)
- Construct: expressed in transfected cells
- procedure details: cell-based
- measurement setup: ligand concentration 100 (unit not given); threshold 0.05, below shown as 0
Give the figure by itself; no unit, no explanation.

(Q) What value of DF norm AVERAGE OR49b has been reported for the following compound? CCCCCOC(C)=O [pentyl acetate]
(A) 0.06097

---
(Q) What value of DF norm AVERAGE OR49b has been reported for the following compound? CCCOC(C)=O [propyl acetate]
(A) 0

(Q) And O=Cc1ccccc1 [benzaldehyde] ?
(A) 0.2265

###

- test system: Drosophila OR13a (Drosophila melanogaster, UniProt Q9VXL0)
- Construct: expressed in transfected cells
- Sequence (Q9VXL0 whole entry, one chain of several): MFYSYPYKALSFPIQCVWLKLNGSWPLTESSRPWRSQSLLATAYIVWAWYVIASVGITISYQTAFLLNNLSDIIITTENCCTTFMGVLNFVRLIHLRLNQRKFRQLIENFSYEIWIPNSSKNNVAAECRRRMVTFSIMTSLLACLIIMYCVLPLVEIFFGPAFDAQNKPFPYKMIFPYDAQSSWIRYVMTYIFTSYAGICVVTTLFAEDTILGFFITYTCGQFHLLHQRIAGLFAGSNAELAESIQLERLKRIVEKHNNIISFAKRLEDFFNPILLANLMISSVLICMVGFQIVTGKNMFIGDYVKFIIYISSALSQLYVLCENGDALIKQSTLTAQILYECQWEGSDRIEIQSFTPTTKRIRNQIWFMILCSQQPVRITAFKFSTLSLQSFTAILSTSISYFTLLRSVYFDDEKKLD
- procedure details: Calcium ion fluorescence (GCaMP6) assay, OR13a stable HEK293 cell line
- Format: cell-based
- measurement setup: 10 μM VOC; 50 μM VUAA1 = 1; responses not exceeding 0.05 considered 0
Listing of entries alongside the reported OR13a Average response (VUAA1-normalized).
Give the figure by itself; no unit, no explanation.

Examples from the recorded data:
(Q) What value of OR13a Average response (VUAA1-normalized) has been reported for the following molecule? C=C(C)C1CCC2(C)OC2C1 (single isomer, unassigned; (+)) [(+)-limonene oxide]
(A) 0.00

(Q) And CC/C=C/CCO [e3-hexenol] ?
(A) 0.00

(Q) And CC(C)=CCC/C(C)=C/CC/C(C)=C/CO [e,e-farnesol] ?
(A) 0.033

Would you kindly look at the next entry?
(Q) What value of OR13a Average response (VUAA1-normalized) has been reported for the following molecule? CC1=CCC[C@@]2(C)[C@@H]3CC[C@]12CC3(C)C [(−)-α-neoclovene]
(A) 0.00

###

- test system: Drosophila OR49b (Drosophila melanogaster, UniProt Q9V6H2)
- Construct: expressed in transfected cells
- Sequence (Q9V6H2 1-375): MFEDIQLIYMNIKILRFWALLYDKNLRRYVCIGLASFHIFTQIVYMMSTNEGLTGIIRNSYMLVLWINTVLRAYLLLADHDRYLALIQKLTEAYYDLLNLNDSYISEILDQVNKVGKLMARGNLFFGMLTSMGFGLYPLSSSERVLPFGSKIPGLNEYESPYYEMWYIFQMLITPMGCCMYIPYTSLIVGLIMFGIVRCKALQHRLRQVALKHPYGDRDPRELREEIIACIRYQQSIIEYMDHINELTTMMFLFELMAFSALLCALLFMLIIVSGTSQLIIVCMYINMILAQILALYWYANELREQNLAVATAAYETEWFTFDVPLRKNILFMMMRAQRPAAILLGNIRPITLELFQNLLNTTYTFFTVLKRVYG
- Sequence (Q9VNB5 1-486 partner): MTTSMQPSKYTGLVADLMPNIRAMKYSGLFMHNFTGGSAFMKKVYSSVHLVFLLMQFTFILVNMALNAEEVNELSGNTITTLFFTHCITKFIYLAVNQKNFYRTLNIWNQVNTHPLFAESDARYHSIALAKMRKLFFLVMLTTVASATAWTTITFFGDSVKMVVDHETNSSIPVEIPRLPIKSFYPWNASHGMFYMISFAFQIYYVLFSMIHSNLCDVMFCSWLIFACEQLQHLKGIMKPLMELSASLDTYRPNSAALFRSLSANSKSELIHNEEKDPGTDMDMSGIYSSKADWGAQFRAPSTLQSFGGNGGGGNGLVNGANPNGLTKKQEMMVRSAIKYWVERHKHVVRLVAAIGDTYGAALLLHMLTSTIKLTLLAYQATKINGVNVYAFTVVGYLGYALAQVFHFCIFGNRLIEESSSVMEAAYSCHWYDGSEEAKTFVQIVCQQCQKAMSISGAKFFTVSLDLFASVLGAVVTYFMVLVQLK
- procedure details: cell-based
- measurement setup: AVERAGE EC50, OR49b; printed with 95% confidence interval; matches the average LOG EC50
measured quantity: pEC50
FYI, pEC50 means -log10 of a concentration in mol per litre.

(Q) What value of pEC50 has been reported for the following molecule? C=Cc1ccccc1
(A) 4.68

###

Listing of entries alongside the reported activation at 1 µM.
- test system: Drosophila OR98a (Drosophila melanogaster)
- Construct: expressed in transfected cells
- Sequence (Q9VAZ3 whole entry, one chain of several): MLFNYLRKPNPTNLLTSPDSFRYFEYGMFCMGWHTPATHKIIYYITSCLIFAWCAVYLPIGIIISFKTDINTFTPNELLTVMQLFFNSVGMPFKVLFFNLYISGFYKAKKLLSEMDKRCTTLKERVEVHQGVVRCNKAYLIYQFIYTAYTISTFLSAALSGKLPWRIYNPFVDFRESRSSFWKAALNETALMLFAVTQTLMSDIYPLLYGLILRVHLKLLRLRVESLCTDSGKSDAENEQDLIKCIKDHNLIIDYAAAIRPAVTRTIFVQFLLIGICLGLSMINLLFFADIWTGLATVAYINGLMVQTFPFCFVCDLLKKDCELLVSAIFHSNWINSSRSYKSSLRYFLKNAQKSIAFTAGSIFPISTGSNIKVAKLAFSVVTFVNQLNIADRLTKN
- procedure details: Calcium ion fluorescence (GCaMP6) assay, OR98a stable HEK293 cell line;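 also: ligand concentrations in µM final VOC concentration in well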
- Type: cell-based
- measurement setup: HEK293, read-out: Average response
Write the answer as a number in %, unit excluded.

Examples from the recorded data:
(Q) What value of activation at 1 µM has been reported for the following compound? CCCCCCCO
(A) 4

(Q) And COC(=O)c1ccccc1O [methyl salicylate] ?
(A) 3

(Q) And CCCCCC(=O)OCC [ethyl hexanoate] ?
(A) 5

(Q) And C=CC(C)(O)CCC=C(C)C (stereo not drawn) ?
(A) 0

(Q) And Cc1ccccc1 ?
(A) 0

---
(Q) What value of activation at 1 µM has been reported for the following compound? C=C1CC[C@H]2O[C@]2(C)CC[C@@H]2[C@@H]1CC2(C)C [(-)-caryophyllene oxide]
(A) 0

(Q) And CCCCCCCCCC=O ?
(A) 3

(Q) And COc1cccc(OC)c1 ?
(A) 0

(Q) And CC(=O)OCC(C)C [isobutyl acetate] ?
(A) 1.85

(Q) And CCCCC(C)=O ?
(A) 3

(Q) And C=C1CCC2(C(C)C)CC12 (stereo not drawn) ?
(A) 0

(Q) And Cc1ccc(C(C)C)cc1 ?
(A) 0

(Q) And Cc1ccc(C)cc1 ?
(A) 0

(Q) And CC(=O)OCCC(C)C [isopentyl acetate] ?
(A) 2.74

(Q) And C=C1CCC2CC1C2(C)C (stereo not drawn) ?
(A) 19

(Q) And C=CC(O)CCCCC (stereo not drawn) ?
(A) 0

(Q) And CCCC(O)CC (stereo not drawn) ?
(A) 0

(Q) And Cc1ccc(C)c(C)c1 ?
(A) 0

(Q) And C=C1CC/C=C(\C)CC[C@@H]2[C@@H]1CC2(C)C [(-)-trans-caryophyllene] ?
(A) 7

(Q) And CC1=CC[C@@H](C(C)(C)O)CC1 ?
(A) 0

(Q) And CCCC(=O)OCC [ethyl butyrate] ?
(A) 3.54

These measurements were taken from paper PMC10709440.
